test: Displacement of [3H]-UDP from chimpanzee P2Y14 receptor expressed in HEK293 cells; type: cell-based, Pan troglodytes
pKi: −log10 of the molar value.
EXPERIMENTAL_ENDPOINT: pKi

Examples with answers:
CHEMICAL_STRUCTURE	pKi
O=C(O)c1cc(-c2ccsc2)c2ccc(-c3ccc(OC(F)(F)F)cc3)cc2c1	7.54
O=C(O)c1cc(-c2ccccc2)c2ccc(OCc3c(Cl)cccc3Cl)cc2c1	7.54
O=C(O)c1cc(-c2ccccc2)c2ccc(OCc3ccccc3)cc2c1	6.80
Cc1cccc(C)c1COc1ccc2c(-c3ccsc3)cc(C(=O)O)cc2c1	7.80
CS(=O)(=O)c1cscc1-c1cc(C(=O)O)cc2cc(-c3ccc(OC(F)(F)F)cc3)ccc12	7.49

[a] O=C(O)c1cc2cc(-c3ccc(OC(F)(F)F)cc3)ccc2c(-c2ccsc2)c1F
[b] O=C(O)c1cc(-c2ccc([C@H](O)C(F)(F)F)cc2)c2ccc(-c3ccc(C(F)(F)F)cc3)cc2c1
[c] Cc1cccc(C)c1COc1ccc2c(-c3ccccc3)cc(C(=O)O)cc2c1
[d] O=C(O)c1cc(-c2ccc([C@@H](O)C(F)F)cc2)c2ccc(-c3ccc(C(F)(F)F)cc3)cc2c1
[e] Cc1cccc(C)c1OCc1ccc2c(-c3ccccc3)cc(C(=O)O)cc2c1
Sort the 5 compounds by pKi; largest first, smallest last. Response field: labels, in requested order. d, b, c, a, e
(d: 8.40, b: 7.68, c: 7.38, a: 6.96, e: 6.47)

* * *

experiment: Metabolic stability in C57BL/6 mouse Hepatocyte assessed as parent compound remaining at 20 uM after 2 hrs; format: ADME, cell-based; details: hepatocytes, read-out: Stability
EXPERIMENTAL_ENDPOINT: remaining at 2 h, 20 µM (%)

In the examples that follow, each entry is paired with its recorded remaining at 2 h, 20 µM.
CHEMICAL_STRUCTURE	remaining at 2 h, 20 µM / %
O=C(O)c1cc(-c2ccsc2)c2ccc(-c3ccc(OC(F)(F)F)cc3)cc2c1	62
O=C(O)c1cc(-c2cscc2C(O)(C(F)(F)F)C(F)(F)F)c2ccc(-c3ccc(OC(F)(F)F)cc3)cc2c1	91
O=C(O)c1cc(-c2ccc([C@@H](O)C(F)F)cc2)c2ccc(-c3ccc(C(F)(F)F)cc3)cc2c1	39
O=C(O)c1cc2cc(-c3ccc(OC(F)(F)F)cc3)ccc2c(-c2ccsc2)c1F	85

[P] CS(=O)(=O)c1cscc1-c1cc(C(=O)O)cc2cc(-c3ccc(OC(F)(F)F)cc3)ccc12
[Q] Cc1cc(F)cc(C)c1COc1ccc2c(-c3ccsc3)cc(C(=O)O)cc2c1
[R] O=C(O)c1cc2cc(-c3ccc(OC(F)(F)F)cc3)ccc2c(-c2ccsc2)c1O
Ascending sort, remaining at 2 h, 20 µM. Lab note: final answer is the ordered label list. Q, P, R
(Q: 8%, P: 16%, R: 93%)

* * *

system: Mus musculus; assay: Intrinsic clearance in C57BL/6 mouse at 2 mg/kg, iv administered in 60% PEG-200; format: ADME, organism-based; design: dose 2 mg/kg, route intravenous; settings: in vivo
EXPERIMENTAL_ENDPOINT: CL (mL/min/kg)

Take a look at these entries with their results.
CHEMICAL_STRUCTURE	CL / mL/min/kg
O=C(O)c1cc(-c2cscc2C(O)(C(F)(F)F)C(F)(F)F)c2ccc(-c3ccc(OC(F)(F)F)cc3)cc2c1	1.9
O=C(O)c1cc2cc(-c3ccc(OC(F)(F)F)cc3)ccc2c(-c2ccsc2)c1F	3.3
O=C(O)c1cc2cc(-c3ccc(OC(F)(F)F)cc3)ccc2c(-c2ccsc2)c1O	7.6
CS(=O)(=O)c1cscc1-c1cc(C(=O)O)cc2cc(-c3ccc(OC(F)(F)F)cc3)ccc12	3.7

[A] O=C(O)c1cc(-c2ccsc2)c2ccc(-c3ccc(OC(F)(F)F)cc3)cc2c1
[B] Cc1cc(F)cc(C)c1COc1ccc2c(-c3ccsc3)cc(C(=O)O)cc2c1
[C] O=C(O)c1cc(-c2ccc([C@@H](O)C(F)F)cc2)c2ccc(-c3ccc(C(F)(F)F)cc3)cc2c1
rank_up(items): orders items by reported CL in ascending numerical order. Output spec: labels arranged per the requested ranking. C, B, A
